# TARGET OR SYSTEM: T1, His-tagged human HVEM (human, UniProt Q92956 39-202, limits assumed)
# T1 construct: Analyte of the BLI assay, 200 nM in PBS; not shown: His tag
# T1 sequence (looked up): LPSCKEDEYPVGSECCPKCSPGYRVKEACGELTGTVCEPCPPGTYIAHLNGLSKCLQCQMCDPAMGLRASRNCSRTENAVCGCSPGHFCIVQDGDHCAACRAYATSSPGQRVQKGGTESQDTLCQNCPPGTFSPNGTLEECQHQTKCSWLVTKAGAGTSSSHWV
# EXPERIMENT: BLI OctetRed96, mAb captured, 200 nM His-HVEM
The following binders are shown together with reported kon values.
ENDPOINT: kon (M⁻¹ s⁻¹)

BINDER	UNITS LABEL	READOUT NUMBER
Ab_052 (H5S19-18A17B) (antibody, V domains shown, also called Ab_52) VH: QVQLKESGPGLVAPSQSLSITCTVSGFSLTIYGVHWVRQPPGKGLEWLGVIWAGGIINYNSALMSRLSISKDNSKSQVFLKMNSLQSDDTAMYYCARDWERDSSGPFAYWGQGTLVTVSA VL: DIQMTQTTSSLSASLGDRVTISCSASQGISNYLNWYQQKPDGTVKLLIYYTSSLHSGVPSRFRGSGSGTDYSLTISNLEPEDIATYYCQQYSKLPWTFGGGTKLEIK	M⁻¹ s⁻¹	80700
Ab_027 (H5S15-17A16A) (antibody, V domains shown, also called Ab_27) VH: EVQLQQSGAELVKPGASVKLSCTASGFNIKDTYMHWVKQRPEQGLEWIGRIAPANGKTKFDPKFQGKATITADTSSNTAYLQLSSLTSEDTAVYYCANYYGRSNDWFVYWGQGTLVTVSA VL: DVLMTQTPLSLPVSLGDQASISCRSSQSIVHSNGITYLEWYLQKPGQSPELLIYKVSNRFSGVPDRFSGSGSGTDFTLKISRVEAEDLGVYYCFQGSHVPLTFGAGTKLELK	M⁻¹ s⁻¹	639000
Ab_073 (H5S20-9A9A) (antibody, V domains shown, also called Ab_73) VH: EVQLQQSGADLVKPGASVKLSCTASGFNIRDTYMHWVNQRPEQGLEWIGRIDPANGNTKYAPKFQGRATITADTSSNTAYLHLSSLTSEDTAVYYCAGYGNSPWFAYWGQGTLVTVSA VL: DVLMTQTPLSLPVNLGDQASISCRSSQSIVHSNGNTYLEWYLQKPGQSPKLLIYKVSNRFSGVPDRFSGSGSGTDFTLKISRVEAEDLGVYYCFQGSHVPLTFGAGTKLELK	M⁻¹ s⁻¹	294000
Ab_034 (H5S15-16A11B) (antibody, V domains shown, also called Ab_34) VH: DVQLVESGGGLVQPGGSRKLSCAASGFTFSSFGMHWVRQAPEKGLEWVAHISSGSSTIYYADTVKGRFTISRDNPKNTLFLQMTSLRSEDTAMYYCARGAYGNFAWFPYWGQGTLVTVSA VL: DVVMTQTPLSLSVSLGDQASISCRSSQSLVHSNGNTYLHWYLQKPGQSPKLLIYKVSNRFSGVPDRFSGSGSGTDFTLKISRVEAEDLGVYFCSQSTHVPTFGSGTKLEIK	M⁻¹ s⁻¹	270000

Where do these numbers come from? They come from patent US20240317871A1.
